Biological target: human GPR142 (Homo sapiens)
Sequence (Q7Z601 whole entry): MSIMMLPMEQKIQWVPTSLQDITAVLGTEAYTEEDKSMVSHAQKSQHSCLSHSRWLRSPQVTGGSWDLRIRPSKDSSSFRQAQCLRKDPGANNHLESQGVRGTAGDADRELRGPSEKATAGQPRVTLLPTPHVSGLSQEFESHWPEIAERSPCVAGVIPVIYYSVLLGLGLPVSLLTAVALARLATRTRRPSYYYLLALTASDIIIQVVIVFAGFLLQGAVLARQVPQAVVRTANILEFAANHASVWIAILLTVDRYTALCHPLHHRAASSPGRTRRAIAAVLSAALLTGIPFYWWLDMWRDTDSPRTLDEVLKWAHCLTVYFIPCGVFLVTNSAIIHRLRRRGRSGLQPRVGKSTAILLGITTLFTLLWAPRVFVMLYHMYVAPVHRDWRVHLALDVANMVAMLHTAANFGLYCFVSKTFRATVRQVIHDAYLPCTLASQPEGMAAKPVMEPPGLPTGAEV
Assay: GPR142 agonist effect as measured by IP-1 assay (HTRF), human GPR142
Conditions: HEK293 cells expressing human GPR142, IP-1; Mean±SEM, n=9; read-out: EC50 against human GPR142 receptor
Description: The purpose of this assay is to detect GPR142 agonist effect. HEK293 cells expressing human GPR142 or mouse GPR142 are maintained in Dulbecco's modified Eagle's medium supplemented with 10% FBS and 800 μg/ml G418 (Geneticin®) at 37° C. and 5% CO2. […] Fluorescence is read in an Envision instrument at 665 nm and 620 nm wavelength. The ratio of 665 nm/620 nm is calculated and converted to IP-1 levels using an IP-1 standard curve. […]
Reported metric: EC50 (nM)
API: value field is a number in nM; no unit string.

(Q) For the molecule shown here, Cc1ncn(C)c1NC(=O)[C@@H]1CCC[C@H](N(C)C(=O)c2cccc(C(F)(F)F)c2)C1 (single isomer, unassigned; isomer 1) , give the reported EC50.
(A) 52.6

====

Biological target: mouse GPR142 (Mus musculus, UniProt Q7TQN9)
Sequence (Q7TQN9 1-365): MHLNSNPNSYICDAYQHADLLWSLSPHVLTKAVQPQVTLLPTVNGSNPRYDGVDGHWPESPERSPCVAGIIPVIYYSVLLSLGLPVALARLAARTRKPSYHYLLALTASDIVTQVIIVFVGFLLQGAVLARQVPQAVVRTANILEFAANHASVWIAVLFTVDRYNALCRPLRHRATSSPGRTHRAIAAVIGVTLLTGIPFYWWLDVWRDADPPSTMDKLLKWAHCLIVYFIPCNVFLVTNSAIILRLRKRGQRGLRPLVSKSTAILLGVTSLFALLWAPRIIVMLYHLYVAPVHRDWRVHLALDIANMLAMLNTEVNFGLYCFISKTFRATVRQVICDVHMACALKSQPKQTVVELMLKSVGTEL
Assay: GPR142 agonist effect as measured by IP-1 assay (HTRF), mouse GPR142
Settings: HEK293 cells expressing mouse GPR142, IP-1; Mean±SEM, n=5; read-out: EC50 against mouse GPR142 receptor
Reported metric: pEC50
Just the number, please; pEC50 means minus log10 of the concentration in mol/L.

(Q) Requested read-out: pEC50. Entry: Cc1ncn(C)c1NC(=O)[C@@H]1CCC[C@H](N(C)C(=O)c2cccc(C(F)(F)F)c2)C1 (single isomer, unassigned; isomer 1) [Example 1]
(A) 8.26
